Here the recorded pIC50 is given for each entry.
Molecular target: PI3K (Homo sapiens)
Construct: PI3 Kinase α IC50; other: PI3 Kinase α; other: PI3 Kinase α isoform, fluorescence polarization
Assay: Fluorescence polarization assay for PI3K
Type: biochemical
Settings: PI3 Kinase α isoform, fluorescence polarization; read-out: PI3 Kinase α IC50
Description: This assay is used to determine the IC50 of compounds of the present invention as it identifies inhibitors of PI3 kinase by measuring inhibition. […] Stop/detector mix is prepared by mixing 4 μL Red detector and 1.6 μL or 2.0 μL GST-GRP with 1 mL Stop buffer, which results in 10 nM probe and 70 nM GST-GRP). […] The plates are read after 30-90 minutes keeping the red probe solutions dark. […] Plates are read on machines with filters for Tamra. […]
Here pIC50 is given on a logarithmic scale as minus log10 of the concentration in mol/L.

The cases that follow already have their pIC50 on record.
molecule | reported_property | endpoint_value
CN(C)CCOc1ccc(NC(=O)Nc2ccc(-c3nc(N4C[C@@H]5C[C@H]4CO5)c4cnn(CC(F)(F)F)c4n3)cc2)cc1 | pIC50 | 6.24
COC(=O)N1CCC(n2ncc3c(N4C5CCC4COC5)nc(-c4ccc(NC(=O)Nc5ccc(N6CCN(C)CC6)cc5)cc4)nc32)CC1 | pIC50 | 5.80
COCC(COC)n1ncc2c(N3CC4CCC(C3)O4)nc(-c3ccc(NC(=O)NCCO)cc3)nc21 | pIC50 | 5.90

Enter pIC50 (test system PI3K (Homo sapiens)) for CS(=O)(=O)N1CCN(Cc2cc3nc(-c4ccc(NC(=O)Nc5ccncc5)cc4)nc(N4CC5CCC(C4)O5)c3s2)CC1
8.10

Enter pIC50 (test system PI3K (Homo sapiens)) for O=C(Nc1ccc(-c2nc(N3CC4CCC(C3)O4)c3cnn(CC(F)(F)F)c3n2)cc1)Nc1ccc(N2CCNCC2)cc1
7.11

====

Target: PI3K (Homo sapiens, UniProt P42336)
Construct: PI3 Kinase α IC50; other: PI3 Kinase α; other: PI3 Kinase α isoform, fluorescence polarization
Sequence (P42336 whole entry, canonical isoform): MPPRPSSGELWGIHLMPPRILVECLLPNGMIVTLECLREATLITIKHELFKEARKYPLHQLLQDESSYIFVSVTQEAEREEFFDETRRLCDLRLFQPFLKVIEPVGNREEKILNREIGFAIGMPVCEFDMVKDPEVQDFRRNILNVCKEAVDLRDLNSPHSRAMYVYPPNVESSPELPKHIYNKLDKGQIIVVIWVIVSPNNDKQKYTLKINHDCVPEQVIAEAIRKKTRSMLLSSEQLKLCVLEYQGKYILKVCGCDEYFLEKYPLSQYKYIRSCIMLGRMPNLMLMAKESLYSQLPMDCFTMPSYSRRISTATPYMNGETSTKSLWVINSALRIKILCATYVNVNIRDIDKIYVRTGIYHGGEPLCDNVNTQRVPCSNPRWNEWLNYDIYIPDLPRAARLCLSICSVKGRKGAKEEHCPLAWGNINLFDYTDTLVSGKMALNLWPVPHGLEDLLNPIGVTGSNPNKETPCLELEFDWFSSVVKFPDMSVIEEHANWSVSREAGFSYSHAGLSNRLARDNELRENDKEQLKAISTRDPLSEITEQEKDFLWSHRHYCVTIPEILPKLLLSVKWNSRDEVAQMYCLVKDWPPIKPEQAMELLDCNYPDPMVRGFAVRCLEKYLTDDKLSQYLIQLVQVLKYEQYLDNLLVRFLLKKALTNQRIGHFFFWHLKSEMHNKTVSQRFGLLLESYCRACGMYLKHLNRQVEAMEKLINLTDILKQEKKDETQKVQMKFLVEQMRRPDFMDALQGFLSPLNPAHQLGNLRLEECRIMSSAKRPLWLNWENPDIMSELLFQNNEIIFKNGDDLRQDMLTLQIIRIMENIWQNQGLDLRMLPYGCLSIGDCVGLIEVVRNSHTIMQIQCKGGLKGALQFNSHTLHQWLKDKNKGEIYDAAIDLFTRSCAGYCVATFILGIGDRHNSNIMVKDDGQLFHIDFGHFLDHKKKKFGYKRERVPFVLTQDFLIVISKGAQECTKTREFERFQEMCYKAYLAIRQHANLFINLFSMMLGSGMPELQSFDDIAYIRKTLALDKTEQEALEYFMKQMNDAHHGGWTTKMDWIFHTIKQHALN
Assay: Fluorescence polarization assay for PI3K
Format: biochemical
Settings: PI3 Kinase α; read-out: PI3 Kinase α IC50
Here the recorded log10(IC50) is given for each entry.
# log10 transformed; quantity=IC50; unit=nM

compound_structure | study_target | log10(IC50)
Cn1ncc2c(N3CC4CCC(C3)O4)nc(-c3ccc(NC(=O)Nc4cccnc4)cc3)nc21 | PI3K (Homo sapiens, UniProt P42336) | 2.36

Enter log10(IC50) (test system PI3K (Homo sapiens, UniProt P42336)) for O=C(Nc1ccc(-c2nc(N3CC4CCC(C3)O4)c3cn[nH]c3n2)cc1)Nc1cccnc1
2.49

Enter log10(IC50) (test system PI3K (Homo sapiens, UniProt P42336)) for O=C(Nc1ccc(CO)cc1)Nc1ccc(-c2nc(N3CC4CCC(C3)O4)c3cnn(CC(F)(F)F)c3n2)cc1
1.75

Enter log10(IC50) (test system PI3K (Homo sapiens, UniProt P42336)) for N#CCCn1ncc2c(N3CC4CCC(C3)O4)nc(-c3ccc(NC(=O)Nc4ccncc4)cc3)nc21
2.05

Enter log10(IC50) (test system PI3K (Homo sapiens, UniProt P42336)) for CCNC(=O)Nc1ccc(-c2nc(N3CC4CCC(C3)O4)c3cnn(CC)c3n2)cc1
3.10

Enter log10(IC50) (test system PI3K (Homo sapiens, UniProt P42336)) for CCn1ncc2c(N3CC4CCC(C3)O4)nc(-c3ccc(NC(=O)NC)cc3)nc21
2.43

Enter log10(IC50) (test system PI3K (Homo sapiens, UniProt P42336)) for COC(=O)N1CCC(n2ncc3c(N4CC5CCC(C4)O5)nc(-c4ccc(NC(=O)NCCN(C)C)cc4)nc32)CC1
2.63

FYI, the data here is from patent US8129371B2.
